I'd appreciate it if you could supply GI50 values for the items below.
# Test system: T47D
# testMethodNotes: Antiproliferative activity against human T47D cells expressing estrogen receptor after 48 hrs by SRB assay
# Format: functional

I am curious: what GI50 value has been reported for CC1=C(C)[C@H]([C@H]2O[C@@]3(O)C[C@H]4[C@@H](C[C@@H](O)[C@@]5(O)CC=CC(=O)[C@]45C)[C@@H]4CC[C@@](O)([C@@H]2C)[C@]43C)OC1=O ? > 100 µM

I am curious: what GI50 value has been reported for CC1=C(C)[C@]2(OC1=O)C(=O)C(C)=C1CC[C@H]3[C@@H]4C[C@H]5O[C@]56CC=CC(=O)[C@]6(C)[C@H]4C[C@@]2(O)[C@]13C ? 3.4 µM

I am curious: what GI50 value has been reported for C[C@@H]1[C@@H]([C@@H]2O[C@H](O)[C@@]3(C)O[C@@]23C)O[C@@]2(O)C[C@H]3[C@@H](CC=C4CC=CC(=O)[C@@]43C)[C@@H]3CC[C@]1(O)[C@]32C ? 30 µM

I am curious: what GI50 value has been reported for C[C@@H](c1cc(O)c2c(c1)CC[C@H]1[C@H]2C[C@@H]2O[C@@]23CC=CC(=O)[C@]13C)[C@@H]1C[C@@H]2O[C@@H]2[C@H](O)O1 [SALPICHROLIDE G] ? 14 µM

I am curious: what GI50 value has been reported for CC1=C(C)C(=O)O[C@]2(C1)O[C@@]1(O)C[C@H]3[C@@H](C[C@H]4O[C@]45CC=CC(=O)[C@]35C)[C@@H]3CC[C@@](O)([C@@H]2C)[C@]31C ? 3.7 µM

* * *

# testMethodNotes: Antiproliferative activity against human MCF7/BUS cells expressing estrogen receptor after 48 hrs by SRB assay
# Assay type: functional
I'd appreciate it if you could supply GI50 values for the items below.
Give just the numeric value; nM need not be written.

I am curious: what GI50 value has been reported for CC1=C(C)C(=O)O[C@@H]([C@H]2CO[C@@]3(O)C[C@H]4[C@@H](C[C@H]5O[C@]56CCCC(=O)[C@]46C)[C@@H]4CC[C@]2(O)[C@]43C)C1 ? 29000

I am curious: what GI50 value has been reported for C[C@@H]1[C@@H]([C@@H]2O[C@H](O)[C@@]3(C)O[C@@]23C)O[C@@]2(O)C[C@H]3[C@@H](CC=C4CC=CC(=O)[C@@]43C)[C@@H]3CC[C@]1(O)[C@]32C ? 18000

I am curious: what GI50 value has been reported for C[C@@H]1[C@@H]([C@@H]2O[C@H](O)[C@@]3(C)O[C@@]23C)O[C@@]2(O)C[C@H]3[C@@H](C[C@H]4O[C@]45CC=CC(=O)[C@]35C)[C@@H]3CC[C@]1(O)[C@]32C ? 2600

I am curious: what GI50 value has been reported for CC1=C(C)[C@]2(OC1=O)[C@H](O)[C@@H](C)[C@]1(O)CC[C@H]3[C@@H]4CC=C5CC=CC(=O)[C@]5(C)[C@H]4C[C@@]2(O)[C@@]31C ? 33000

I am curious: what GI50 value has been reported for CC1=C(C)C(=O)O[C@@H]([C@](C)(O)[C@]2(O)CC[C@@]3(O)[C@@H]4C[C@H]5O[C@]56CC=CC(=O)[C@]6(C)[C@H]4CC[C@]23C)C1 [WITHANOLIDE E] ? 420

I am curious: what GI50 value has been reported for CC[C@@]1(O)C(=O)OCc2c1cc1n(c2=O)Cc2cc3ccccc3nc2-1 ? 210

I am curious: what GI50 value has been reported for CC1=C(C)C(=O)O[C@@H]([C@](C)(O)[C@]2(O)CC[C@@]3(O)[C@@H]4C[C@H]5O[C@]56[C@@H](O)C=CC(=O)[C@]6(C)[C@H]4CC[C@]23C)C1 ? 1100

I am curious: what GI50 value has been reported for CCO[C@@]12C[C@H]3[C@@H](C[C@@H](O)[C@@]4(Cl)CC=CC(=O)[C@]34C)[C@@H]3CC[C@@](O)([C@H](C)[C@@H]([C@@H]4OC(=O)C(C)=C4C)O1)[C@]32C ? 3000

I am curious: what GI50 value has been reported for CC1=C(C)C(=O)O[C@]2(C1)O[C@@]1(O)C[C@H]3[C@@H](C[C@H]4O[C@]45CC=CC(=O)[C@]35C)[C@@H]3CC[C@@](O)([C@@H]2C)[C@]31C ? 2900

I am curious: what GI50 value has been reported for CC1=C(C)[C@]2(OC1=O)C(=O)C(C)=C1CC[C@H]3[C@@H]4C[C@H]5O[C@]56CC=CC(=O)[C@]6(C)[C@H]4C[C@@]2(O)[C@]13C ? 3300
